# Tested on: SK-BR-3
# TEST DETAILS: Antiproliferative activity against human SKBR3 cells expressing HER2 after 72 hrs by MTS/PMS assay
# Format: functional, cell-based
# SETTINGS: SK-BR-3, 72 h
OBSERVABLE: IC50 (µM)
Give bare numbers, in µM.

Reference set (5 entries):
COc1cccc(-c2cc(C(=O)Nc3cc4ccc(OC5C=CCNC5)c(OC)c4oc3=O)ccc2OC)c1 (stereo unspecified); 3.07
COc1cccc(-c2cc(C(=O)Nc3cc4ccc(OP(=O)(OC)OC)c(OC)c4oc3=O)ccc2OC)c1; 18.1
COc1cccc(-c2cc(C(=O)Nc3cc4cc(OC)c(O[C@@H]5OC[C@@H](O)[C@H]5O)c(C)c4oc3=O)ccc2OC)c1; 9.45
COc1cccc(-c2cc(C(=O)Nc3cc4ccc(OCCN(C)C)c(C)c4oc3=O)ccc2OC)c1; 1.02
COc1cccc(-c2cc(C(=O)Nc3cc4cc(OC)c(OC5CCCNC5)c(C)c4oc3=O)ccc2OC)c1 (stereo unspecified); 2.27

The following molecules each have a reported value; give each one's IC50.
1. COc1cccc(-c2cc(C(=O)Nc3cc4ccc(OC5CCNCC5)c(OC)c4oc3=O)ccc2OC)c1
2. COc1cccc(-c2cc(C(=O)Nc3cc4ccc(O[C@@H]5O[C@H](CO)C[C@@H](O)[C@H]5O)c(C)c4oc3=O)ccc2OC)c1
3. COc1cccc(-c2cc(C(=O)Nc3cc4ccc(O[C@@H]5O[C@H](CO)C[C@@H](O)[C@H]5O)c(OC)c4oc3=O)ccc2OC)c1
4. CNC(=O)Oc1c(OC)cc2cc(NC(=O)c3ccc(OC)c(-c4cccc(OC)c4)c3)c(=O)oc2c1C
5. COc1cccc(-c2cc(C(=O)Nc3cc4ccc(OC5CCCN(C)C5)c(OC)c4oc3=O)ccc2OC)c1 (stereo unspecified)
6. COc1cccc(-c2cc(C(=O)Nc3cc4ccc(OC5C=CCN(C)C5)c(C)c4oc3=O)ccc2OC)c1 (stereo unspecified)
7. COc1cccc(-c2cc(C(=O)Nc3cc4cc(OC)c(OC5CCN(C)CC5)c(C)c4oc3=O)ccc2OC)c1

Result string:
1: 1.79; 2: 9.59; 3: 11.8; 4: 1.53; 5: 1.4; 6: 2.92; 7: 1.19

Given item COc1cccc(-c2cc(C(=O)Nc3cc4ccc(OC5CN(C)C[C@@H](O)[C@H]5O)c(OC)c4oc3=O)ccc2OC)c1 (stereo partly specified) , the value recorded as its IC50 is 6.64

###

# Test system: SK-BR-3
# TEST DETAILS: Antiproliferative activity against human SKBR3 cells expressing HER2 after 72 hrs by MTS/PMS assay
# Type: functional, cell-based
# SETTINGS: SK-BR-3, 72 h
Assignment: determine reported IC50 for the given molecules.
Answers are plain numbers, in µM.

Reference set (5 entries):
COc1cccc(-c2cc(C(=O)Nc3cc4cc(OC)c(OC(N)=O)c(C)c4oc3=O)ccc2OC)c1; 6.83
COc1c(OCCCN(C)C)ccc2cc(NC(=O)c3cc4ccccc4[nH]3)c(=O)oc12; 1.5
COc1cccc(-c2cc(C(=O)Nc3cc4ccc(O[C@@H]5OCCC[C@@H](O)[C@H]5O)c(C)c4oc3=O)ccc2OC)c1; 2.38
COc1cccc(-c2cc(C(=O)Nc3cc4cc(OC)c(OC(C)=O)c(C)c4oc3=O)ccc2OC)c1; 5.72
COc1cccc(-c2cc(C(=O)Nc3cc4cc(OC)c(OC5CNC[C@@H](O)[C@H]5O)c(C)c4oc3=O)ccc2OC)c1 (some centres not stated); 3.65

The following molecules each have a reported value; give each one's IC50.
1. COc1cccc(-c2cc(C(=O)Nc3cc4ccc(O[C@@H]5OC[C@@H](O)[C@H]5O)c(OC)c4oc3=O)ccc2OC)c1
2. COc1cccc(-c2cc(C(=O)Nc3cc4cc(OC)c(OC5OC(C)(C)[C@H](OC)[C@@H](O)[C@H]5O)c(C)c4oc3=O)ccc2OC)c1 (some centres not stated)
3. COc1cc2cc(NC(=O)c3ccc(O)c(CC=C(C)C)c3)c(=O)oc2c(C)c1OCCCN(C)C

Result string:
1. 7.57
2. 58.8
3. 0.39

Taken from ChEMBL document CHEMBL1795208.
